MEASUREMENT KIND: melting point

Answered cases to consult:
Form field: reported melting point of COC(=O)c1ncn(CCCc2ccc(OCc3coc(/C=C/c4ccccc4)n3)cc2)c1C(=O)OC
85 to 86 °C

Same lookup for CCNC(=O)Nc1ccc(C(O)(C(F)(F)F)C(F)(F)F)cc1C(=O)OCC , please.
144 to 146 °C

Same lookup for O=c1c(/C=C/c2nnn[nH]2)coc2ccccc12 , please.
254 to 255 °C

Same lookup for CC(=O)c1ccc(C(=O)c2ccc(O)c(CC(=O)O)c2)cc1 , please.
235 °C

Same lookup for Cc1c(Cc2cccc(C(F)(F)F)c2)oc2c(-c3cccc(C(=O)NCCC#N)c3)cccc12 , please.
158 to 159 °C

Same lookup for COC(=O)N1CCc2ccc(N)cc2CC1 , please.
100 to 104 °C

***
Form field: reported melting point of CCc1cc(I)c(CC)cc1I
68 to 69 °C

Same lookup for COC(=O)c1ccc(-c2nc(OC(C)=O)c(C)s2)cc1 , please.
124 to 125 °C

Same lookup for O=C(Nc1ccc(F)c(C(F)(F)F)c1)C1C(=O)C2CCC(C2)C1=O (stereo not drawn) , please.
97 to 100 °C

Same lookup for O=C1Oc2ccc(Cl)cc2C2=c3ccccc3=NCC12 (stereo not drawn) , please.
> 350 °C

Same lookup for COc1nc(-c2ccc(C(=O)O)cc2)cc2cccnc12 , please.
> 300 °C
